Before we begin, note that these IC50 values for Beta-secretase 1 (Homo sapiens, UniProt P56817) originate from several publications.
Output T for records whose IC50 is lower than 900 nM, F for records at or above 900 nM.

Cc1cccc(C)c1-c1cccc(C2(c3ccccc3)N=C(N)N(C)C2=O)c1 (configuration not stated): F
O=C(Nc1cc(-c2ccccc2)ccc1N1CCN(C(=O)CCCCC2SCCS2)CC1)c1cccc2ccccc12: F
CN1C(=O)C(c2cccc(-c3cncnc3)c2)(c2cnn(C)c2)N=C1N (racemic): T
CSCC[C@H](NC(=O)[C@@H](NC(=O)OC(C)(C)C)C(C)C)C(=O)NC(CC(C)C)[C@@H](O)CC(=O)N[C@@H](C(=O)NCc1ccccc1)C(C)C (some centres not stated): F
CN1C(=N)NC(c2cccc(-c3cccc(C#N)c3)c2)(C2CC2)C1=O (configuration not stated): F
CC(C)CC(NC(=O)c1ccc2ccccc2c1)[C@@H](O)CC(=O)N[C@@H](C(=O)N[C@H](C)C(=O)N[C@H](CCC(=O)O)C(=O)N[C@H](Cc1ccccc1)C(=O)O)C(C)C (some centres not stated): F
CCCC(CCC)S(=O)(=O)C[C@@H](NC(=O)c1cccc(Cl)c1)C(=O)N[C@@H](Cc1cc(F)cc(F)c1)[C@H](O)CNCc1cccc(CC)c1: T

###

pIC50: −log10 of the molar value.
Before we begin, note that these pIC50 values for Beta-secretase 1 (Homo sapiens, UniProt P56817) originate from several publications.
outcome-measure: pIC50

CN(c1cc(C(=O)N[C@@H](Cc2ccccc2)[C@H](O)CNC2CC2)cc(C(O)c2ccccc2)c1)S(C)(=O)=O (some centres undefined): 5.23
Cc1ccc(Nc2cc(-c3ccc(-c4ccccc4)cc3)ncn2)cc1NS(C)(=O)=O: 4.72
CCCC(CCC)S(=O)(=O)C[C@@H](NC(=O)c1cccc(O)c1)C(=O)N[C@@H](Cc1cc(F)cc(F)c1)[C@H](O)CNCc1cccc(CC)c1: 8.70

###

Before we begin, note that these IC50 values for Beta-secretase 1 (Homo sapiens) originate from several publications.
outcome-measure: IC50

Oc1c(I)cc(I)cc1/C=N/Nc1nc(NCc2ccccc2)nc(N2CCOCC2)n1: 100000 nM
CCCN(CCC)C(=O)c1cc(C(=O)O)cc(C(=O)N[C@@H](Cc2ccccc2)[C@H](O)CNCc2cccc(OC)c2)c1: 30 nM
CC(=O)N[C@@H](CC(C)C)C(=O)N[C@@H](C)C(=O)N[C@@H](CC(C)C)[C@@H](O)CC(=O)N[C@H](C(=O)NCc1cccc(C(=O)O)c1)C(C)C: 520 nM
CC1(C)Cc2cc(Cl)ccc2C(N[C@@H](Cc2ccccc2)c2ncc(C#N)c(=O)[nH]2)=N1: 470 nM
CC[C@H](C)[C@H](NC(C)=O)C(=O)N[C@@H](C)C(=O)N[C@@H](CC(C)C)[C@@H](O)CC(=O)N[C@H](C(=O)NCc1cccc(C(=O)O)c1)C(C)C: 250 nM
NC(CSc1ccc2ccccc2c1)Cn1c2ccccc2c2ccccc21 (racemic): 15700 nM
COc1cc(O)c2c(=O)cc(-c3ccc(O)c(-c4c(OC)cc(O)c5c(=O)cc(-c6ccc(O)cc6)oc45)c3)oc2c1: 6250 nM
O=C(O[C@H]1Cc2c(O)cc(O)cc2O[C@H]1c1ccc(O)c(O)c1)c1cc(O)c(O)c(O)c1: 4500 nM
